The measured values listed here are drawn from the RNAGym collection of RNA variant scans (doi:10.1073/pnas.2313332121).

Hi there, I'd appreciate the recorded polymerase ribozyme fitness (log ratio) for every entry that follows.
B1: TPR t1 (parent)
chain: GACCAAUCUGCCCUCAGAGCUCGAGAACAUCUUCGGAUGCAGAGGAGGCAGGCUUCGGUGGCGCGAUAGCGCCAACGUCCUCAACCUCCAAUGCAUCCCACCACAUGAUGAUGCCUGAAGAGCCUUGGUUUUUUG

variants of: B1; assay: polymerase ribozyme fitness, log enrichment relative to wild type (log ratio); higher = more active; in vitro selection for triplet polymerase activity
Give bare numbers.

Recorded polymerase ribozyme fitness (log ratio), per entry:
GACCAAUCUGCCCUCAGAGCUAGAGAACAUCUUCGGAUACAGAGGAGGCAGGCUUCGGUGGCGCGAUAGCGCCAACGUCCUCAACCUCCAAUGCAUCCCACCACAUGAUGAUGCCUGAAGAGCCUUGGUUUUUUG
-5.08
GACCAAUCUGCCCUCAGAGCUCGAGAACAUCUUCGGAUGCAGAGGAGGCAGGUUUCCGUGGCGCGAUAGCGCCAACGCCCUCAACCUCCAAUGCAUCCCACCACAUGAUGAUGACUGAAGAGUCUUGGUUUUUUG
-3.58

For every item in the list below, what is its measured polymerase ribozyme fitness (log ratio)?
1. GACCAAUCAGCCCUCAGAGCUCGAGAACAUCUUCGGAUGCAGAGGAGGCAGGCUUCGGUGGCGCGAUAUCGCCAACGUCCUCAACCUCCAAUGCAUCCCACCACAUGAUGAUGCCUGAAGAGCCUUGGUUUUUUG
2. GACCAAUCUGCCCUCAGAGCUCGAGAACAUCUUCGGAUGCAGAGGAGGCAGGCUUCGGUGGCGCGAUAGCGCCAACGUCCUCAACCUCCAAUGCAUCCCACCACAUGAUGAUCCCUGAAGAGCCGUGGUUUUUUG

Resp:
1. 0.755
2. -2.58
